IC50 by entry:
Target: NLRP3 inflammasome (Homo sapiens)
Sequence (Q96P20 whole entry): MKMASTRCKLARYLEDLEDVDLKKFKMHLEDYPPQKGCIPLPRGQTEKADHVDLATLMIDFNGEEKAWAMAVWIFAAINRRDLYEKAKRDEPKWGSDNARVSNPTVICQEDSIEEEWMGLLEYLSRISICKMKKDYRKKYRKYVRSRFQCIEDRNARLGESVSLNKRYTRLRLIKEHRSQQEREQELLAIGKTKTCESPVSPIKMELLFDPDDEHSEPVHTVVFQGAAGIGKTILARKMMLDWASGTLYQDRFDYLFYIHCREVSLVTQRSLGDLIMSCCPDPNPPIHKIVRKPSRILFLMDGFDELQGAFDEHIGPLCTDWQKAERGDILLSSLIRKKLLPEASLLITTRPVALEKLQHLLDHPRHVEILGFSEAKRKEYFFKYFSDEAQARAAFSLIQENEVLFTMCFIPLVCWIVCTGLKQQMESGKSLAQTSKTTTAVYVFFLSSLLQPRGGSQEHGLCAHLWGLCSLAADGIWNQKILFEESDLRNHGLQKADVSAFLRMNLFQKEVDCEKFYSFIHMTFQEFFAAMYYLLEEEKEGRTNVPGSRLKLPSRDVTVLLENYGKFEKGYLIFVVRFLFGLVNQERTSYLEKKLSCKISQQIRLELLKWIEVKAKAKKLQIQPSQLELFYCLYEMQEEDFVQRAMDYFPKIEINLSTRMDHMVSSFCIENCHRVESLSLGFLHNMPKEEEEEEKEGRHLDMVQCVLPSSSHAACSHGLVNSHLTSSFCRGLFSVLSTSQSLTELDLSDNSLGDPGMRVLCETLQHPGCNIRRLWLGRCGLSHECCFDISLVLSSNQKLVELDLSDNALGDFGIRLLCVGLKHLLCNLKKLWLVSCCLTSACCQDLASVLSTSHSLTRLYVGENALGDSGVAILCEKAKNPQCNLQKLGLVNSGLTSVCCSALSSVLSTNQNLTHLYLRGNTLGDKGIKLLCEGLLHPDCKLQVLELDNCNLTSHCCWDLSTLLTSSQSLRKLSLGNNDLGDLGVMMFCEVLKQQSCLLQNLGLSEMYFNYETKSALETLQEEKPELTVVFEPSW
Assay: NLRP3 inflammasome activation in THP1 macrophages (LPS priming, nigericin), IL-1β AlphaLISA
Conditions: PMA-differentiated THP1, LPS 20 ng/ml 3 hrs, compound 1 hr, Nigericin 6.7 uM 3 hrs, supernatant

Cc1cc(N[C@@H]2CCCN(C)C2)nnc1-c1cc(C)c(F)c(C)c1; 100 to 500 nM
Cc1cc(F)cc(C)c1-c1ccc(N[C@@H]2CCCN(C)C2)nn1; > 1000 nM

Problem: Short answer please: IC50, NLRP3 inflammasome (Homo sapiens), entry Cc1cc(N[C@H]2CN(C)CC[C@H]2F)nnc1-c1ccc(F)cc1
Result: 100 to 500 nM

Problem: Record lookup: for NLRP3 inflammasome (Homo sapiens), what IC50 belongs to Cc1cc(-c2ccc(C#N)cc2)nnc1N[C@@H]1CCCN(C)C1 ?
Result: > 1000 nM

Problem: Reported IC50 for NLRP3 inflammasome (Homo sapiens), given Cc1cc(N[C@@H]2CCCN(C)C2)nnc1-c1ccc(Cl)cc1C#N ?
Result: 10 to 50 nM

Problem: Short answer please: IC50, NLRP3 inflammasome (Homo sapiens), entry Cc1cc(N[C@@H]2CCCN(CC(F)(F)F)C2)nnc1-c1ccc(C(F)(F)F)cc1
Result: > 1000 nM

Problem: Missing value: IC50, NLRP3 inflammasome (Homo sapiens), entry Cc1cc(-c2ccc(C(F)(F)F)cc2)nnc1N[C@@H]1CCCN(C)C1 . Fill in?
Result: 500 to 1000 nM

Problem: Short answer please: IC50, NLRP3 inflammasome (Homo sapiens), entry Cc1cc(N[C@@H]2CCCN(C(C)C)C2)nnc1-c1ccc(Cl)cc1
Result: ≤ 10 nM

Problem: IC50 of Cc1cc(Cl)ccc1-c1nnc(N[C@@H]2CCCN(C(C)C)C2)cc1C on NLRP3 inflammasome (Homo sapiens)?
Result: ≤ 10 nM

----------
Biological target: NLRP3 inflammasome (Homo sapiens)
Assay: NLRP3 inflammasome activation in THP1 macrophages (LPS priming, nigericin), IL-1β AlphaLISA
Settings: PMA-differentiated THP1, LPS 20 ng/ml 3 hrs, compound 1 hr, Nigericin 6.7 uM 3 hrs, supernatant
pIC50: −log10 of the molar value.
# pIC50 listing for each entry below

Some molecules with known pIC50 results, for comparison:
Cc1cc(-c2ccc(C(F)(F)F)c(F)c2)nnc1N[C@@H]1CCCN(C)C1; 6.00 to 6.30
Cc1cc(C(F)(F)F)ccc1-c1cc(O)c(N[C@@H]2CCCN(C)C2)nn1; 6.30 to 7.00
Cc1cc(-c2nnc(N[C@@H]3CCCN(C)C3)cc2C)ccc1F; 7.30 to 8.00
Cc1cc(N[C@H]2CN(C)CC[C@H]2F)nnc1-c1ccc(C(F)(F)F)cc1; < 6.00
CCN1CCC[C@@H](Nc2nnc(-c3ccc(F)cc3)cc2C(F)(F)F)C1; < 6.00
Cc1cc(N[C@@H]2CCCN(C)C2)nnc1-c1ccc(C(F)(F)F)cc1; 7.30 to 8.00

Problem: What does the record list as pIC50 for COc1cc(C(F)(F)F)ccc1-c1cc(C)c(N[C@@H]2CCCN(C)C2)nn1 ?
Result: 6.00 to 6.30

Problem: What value of pIC50 has been recorded for this entry: Cc1cc(N[C@@H]2CCCN(CCO)C2)nnc1-c1ccc(C(F)(F)F)cc1
Result: 7.30 to 8.00
